target: BChE (Equus caballus); construct: two enzymes of non-human origin: equine serum BChE and porcine liver CES; assay: Kinetic study of BChE inhibition, steady-state inhibition constants; details: Lineweaver-Burk analysis; read-out: Ki (competitive component), BChE
Sequence (P81908 whole entry): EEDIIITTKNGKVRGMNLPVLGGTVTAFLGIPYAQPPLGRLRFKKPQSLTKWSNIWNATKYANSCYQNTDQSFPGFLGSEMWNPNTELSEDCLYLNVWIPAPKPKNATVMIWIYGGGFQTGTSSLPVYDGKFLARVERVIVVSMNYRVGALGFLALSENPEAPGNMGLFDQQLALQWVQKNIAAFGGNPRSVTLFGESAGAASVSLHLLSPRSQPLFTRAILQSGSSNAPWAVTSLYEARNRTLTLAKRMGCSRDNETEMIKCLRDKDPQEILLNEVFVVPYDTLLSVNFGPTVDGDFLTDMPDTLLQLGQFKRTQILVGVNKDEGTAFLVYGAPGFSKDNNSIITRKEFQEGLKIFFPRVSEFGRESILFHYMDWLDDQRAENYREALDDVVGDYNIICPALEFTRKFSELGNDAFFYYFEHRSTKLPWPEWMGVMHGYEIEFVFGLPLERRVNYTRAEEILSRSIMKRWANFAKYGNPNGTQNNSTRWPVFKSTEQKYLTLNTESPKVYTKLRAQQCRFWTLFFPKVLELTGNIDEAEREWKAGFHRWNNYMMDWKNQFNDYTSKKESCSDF
Endpoint Name: Ki (nM)
Give your result in nM as a bare value.

Data request: Which measured Ki value corresponds to `Cc1ccc(S(=O)(=O)NCCCCNc2c3c(nc4ccccc24)CCCC3)cc1` ?
Data returned: 23.5
